- Test system: OVCAR-5 ovarian
- protocol-description: NCI tumour cell line growth inhibition, 48 h
For each of the compounds below, state its TGI.

Record Cc1ccc(C(=O)Nc2ccc(S(=O)(=O)O)c3cc(S(=O)(=O)O)cc(S(=O)(=O)O)c23)cc1NC(=O)Nc1cc(C(=O)Nc2ccc(S(=O)(=O)O)c3cc(S(=O)(=O)O)cc(S(=O)(=O)O)c23)ccc1C , field TGI: > 87.5 µM

Record O=c1nc(Oc2c(F)c(F)c(F)c(F)c2F)ccn1C1OC(CO)C(O)C1O (centres undefined) , field TGI: > 100 µM

Record CC(NC(=O)C(CC(=O)OCc1ccccc1)NC(=O)OCc1ccccc1)c1ccccc1 (centres undefined) , field TGI: > 100 µM

Record Cc1ncc([N+](=O)[O-])n1CC(O)Cn1ccnc1[N+](=O)[O-] (centres undefined) , field TGI: > 100 µM

---

For each of the molecules below, state its TGI.
- Test system: HCC-2998 colon
- protocol-description: NCI tumour cell line growth inhibition, 48 h

Record OC(Cc1cccnc1)(c1ccccc1)c1ccccc1 , field TGI: > 100 µM

Record NC(N)=NS(=O)(=O)c1ccc(NC(=O)c2cccc3c(NNc4ccc(C(=O)O)cc4)c4ccccc4nc23)cc1 , field TGI: > 100 µM

Record COc1ccc2c(c1)CC1Cc3cc(OC)c(OC)cc3CN1CC2 (centres undefined) , field TGI: > 100 µM

Record C=C(C)[C@@H]1CC[C@]2(COC(C)=O)CC[C@]3(C)[C@H](CC[C@@H]4[C@@]5(C)CC[C@H](OC(C)=O)C(C)(C)[C@@H]5CC[C@]43C)[C@@H]12 , field TGI: 1.67 µM

Record CCOC(=O)N1C=NC23C(c4ccccc4)C(c4ccccc4)C12C(=O)N(C)C(=O)N3C (centres undefined) , field TGI: > 100 µM

Record Cn1cc(C2=C(Sc3ccccc3)C(=O)NC2=O)c2ccccc21 , field TGI: > 18.2 µM

Record O=[N+]([O-])C(=C1NCCN1)/C(Cl)=C(/Cl)N1CCOCC1 , field TGI: > 100 µM

Record Cc1ccc(S(=O)(=O)N/N=C(/CC(=O)c2c(C)n([O-])c3ccccc3[n+]2=O)C(=O)Nc2ccc(C)c(C)c2)cc1 , field TGI: > 100 µM

Record O=C(O)/C=N/NC(=S)NC1CCCCC1 , field TGI: > 100 µM

---

- Test system: CAKI-1 renal
- protocol-description: NCI tumour cell line growth inhibition, 48 h; in the data active means GI50 below about 0.43 µM; inactive means the rest
Mark one answer only. Choices: active, inactive

Query: I'd appreciate the recorded outcome for CCCCCCCCCCCCCCCCCCOP(=O)([O-])OC1CC[N+](C)(C)CC1 from this test.
Result: inactive

Query: I'd appreciate the recorded outcome for Cc1c(NC(=O)c2cc(C(N)=O)nc3cc(F)ccc23)c(C(F)(F)F)nn1Cc1ccc(C#N)cc1 from this test.
Result: inactive

Query: I'd appreciate the recorded outcome for C=C(C)[C@@H]1CC[C@]2(CNCCO)CC[C@]3(C)[C@H](CC[C@@H]4[C@@]5(C)CCC(N)[C@@](C)(CO)[C@@H]5CC[C@]43C)[C@@H]12 (some centres undefined) from this test.
Result: inactive

Query: I'd appreciate the recorded outcome for COc1cc2c3c(n(CCCN=[N+]=[N-])c(=O)c2cc1OC)-c1ccc(C#N)cc1C3=O from this test.
Result: inactive

Query: I'd appreciate the recorded outcome for COc1ccc(C2=C(c3cn(C)c4ccccc34)C(=O)NC2=O)cc1 from this test.
Result: inactive

Query: I'd appreciate the recorded outcome for COc1cccc2c1C(CO)N1C(C#N)C3CC(C(=O)O)C(C1C2)N3C (centres undefined) from this test.
Result: active

Query: I'd appreciate the recorded outcome for CC1=C(SCCC(=O)OCC(=O)NCCC[Te]c2ccccc2)C(=O)c2ccccc2C1=O from this test.
Result: inactive

Query: I'd appreciate the recorded outcome for CC#Cc1nc2ccccc2c(=O)[nH]1 from this test.
Result: inactive

Query: I'd appreciate the recorded outcome for COc1cc(C(=O)/C=C/c2c(-c3cccs3)nc3sc(C)cn23)cc(OC)c1OC from this test.
Result: inactive
